Every entry's value here was drawn from patent US20230148214A1.

# target: LRRK2 G2019S (Homo sapiens, UniProt Q5S007, G2019S)
# Sequence (Q5S007 whole entry G2019S): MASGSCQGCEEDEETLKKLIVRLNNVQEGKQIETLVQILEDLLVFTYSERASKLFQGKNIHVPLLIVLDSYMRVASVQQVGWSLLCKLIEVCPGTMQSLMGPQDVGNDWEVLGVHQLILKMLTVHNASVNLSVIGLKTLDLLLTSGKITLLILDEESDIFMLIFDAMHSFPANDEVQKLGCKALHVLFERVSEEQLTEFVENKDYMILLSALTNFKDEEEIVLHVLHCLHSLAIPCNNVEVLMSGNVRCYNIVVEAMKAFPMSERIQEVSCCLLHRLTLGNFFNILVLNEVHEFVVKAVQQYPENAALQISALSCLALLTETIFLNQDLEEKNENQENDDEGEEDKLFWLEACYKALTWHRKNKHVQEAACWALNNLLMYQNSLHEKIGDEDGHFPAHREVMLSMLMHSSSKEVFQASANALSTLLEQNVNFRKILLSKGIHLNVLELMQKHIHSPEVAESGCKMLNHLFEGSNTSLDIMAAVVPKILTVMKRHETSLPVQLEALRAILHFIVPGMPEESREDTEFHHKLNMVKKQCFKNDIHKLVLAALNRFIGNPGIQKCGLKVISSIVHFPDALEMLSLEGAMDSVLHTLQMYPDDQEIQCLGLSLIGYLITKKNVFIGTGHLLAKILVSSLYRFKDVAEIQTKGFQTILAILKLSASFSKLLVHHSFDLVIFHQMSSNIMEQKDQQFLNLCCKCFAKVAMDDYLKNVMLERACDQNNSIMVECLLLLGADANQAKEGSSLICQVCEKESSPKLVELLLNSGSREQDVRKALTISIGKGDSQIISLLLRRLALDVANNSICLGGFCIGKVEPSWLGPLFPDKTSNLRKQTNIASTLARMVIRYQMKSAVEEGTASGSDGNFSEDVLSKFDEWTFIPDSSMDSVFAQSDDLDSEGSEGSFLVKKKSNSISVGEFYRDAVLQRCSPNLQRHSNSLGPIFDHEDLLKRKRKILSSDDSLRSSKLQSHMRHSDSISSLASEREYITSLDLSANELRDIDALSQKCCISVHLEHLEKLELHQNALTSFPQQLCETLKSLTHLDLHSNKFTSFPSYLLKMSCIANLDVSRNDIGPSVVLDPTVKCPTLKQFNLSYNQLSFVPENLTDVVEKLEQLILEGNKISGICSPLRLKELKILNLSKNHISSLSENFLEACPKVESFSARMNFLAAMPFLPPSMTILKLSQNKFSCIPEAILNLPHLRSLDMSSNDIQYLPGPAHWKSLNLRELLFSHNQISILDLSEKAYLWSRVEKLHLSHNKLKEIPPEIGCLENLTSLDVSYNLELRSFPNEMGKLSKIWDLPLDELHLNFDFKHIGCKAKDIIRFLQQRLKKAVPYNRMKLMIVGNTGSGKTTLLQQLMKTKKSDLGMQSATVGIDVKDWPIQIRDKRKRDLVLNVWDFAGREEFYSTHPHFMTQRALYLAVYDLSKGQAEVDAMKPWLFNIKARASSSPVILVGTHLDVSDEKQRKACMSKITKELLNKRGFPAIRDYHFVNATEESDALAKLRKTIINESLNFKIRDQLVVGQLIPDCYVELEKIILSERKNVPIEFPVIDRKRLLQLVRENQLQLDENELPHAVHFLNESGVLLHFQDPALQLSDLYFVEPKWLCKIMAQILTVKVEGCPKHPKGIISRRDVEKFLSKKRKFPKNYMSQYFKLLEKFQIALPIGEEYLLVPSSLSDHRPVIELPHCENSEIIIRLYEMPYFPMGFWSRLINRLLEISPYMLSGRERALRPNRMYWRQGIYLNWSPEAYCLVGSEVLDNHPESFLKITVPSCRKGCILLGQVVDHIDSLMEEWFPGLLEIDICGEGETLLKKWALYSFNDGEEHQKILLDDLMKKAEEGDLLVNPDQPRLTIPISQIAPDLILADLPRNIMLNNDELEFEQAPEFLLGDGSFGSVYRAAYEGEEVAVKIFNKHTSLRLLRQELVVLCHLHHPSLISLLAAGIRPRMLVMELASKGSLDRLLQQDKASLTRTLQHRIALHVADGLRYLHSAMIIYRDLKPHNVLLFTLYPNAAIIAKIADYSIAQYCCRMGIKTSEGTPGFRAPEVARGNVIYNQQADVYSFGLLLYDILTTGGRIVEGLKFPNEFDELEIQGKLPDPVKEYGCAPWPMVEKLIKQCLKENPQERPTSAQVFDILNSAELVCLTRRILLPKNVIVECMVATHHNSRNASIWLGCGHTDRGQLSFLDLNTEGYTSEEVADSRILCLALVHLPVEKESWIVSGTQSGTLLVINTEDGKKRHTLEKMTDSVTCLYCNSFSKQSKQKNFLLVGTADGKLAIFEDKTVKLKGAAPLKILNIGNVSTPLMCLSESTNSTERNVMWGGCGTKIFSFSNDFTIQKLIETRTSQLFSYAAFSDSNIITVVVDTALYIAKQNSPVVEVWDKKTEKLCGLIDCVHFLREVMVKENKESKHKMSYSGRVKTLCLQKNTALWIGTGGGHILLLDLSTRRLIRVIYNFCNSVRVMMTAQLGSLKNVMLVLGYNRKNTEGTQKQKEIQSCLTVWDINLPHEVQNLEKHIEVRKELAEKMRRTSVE
# assay_details: LRRK2 Kinase Activity Assay (LanthaScreen TR-FRET), G2019S
# condition: recombinant G2019S-LRRK2, 25 μM ATP, 400 nM LRRKtide, 60 min; class symbols
pIC50: −log10 of the molar value.
metric: pIC50

* COc1cc(-c2n[nH]c3ccc(O[C@H]4CCCc5cc(C#N)cnc54)cc23)ccn1 (single isomer, unassigned) [Example 123, enantiomer 1] | > 7.00
* N#Cc1ccc2c(c1)CCC[C@@H]2Nc1ccc2[nH]nc(C3=CCCC3)c2c1 (single isomer, unassigned) | 6.00 to 7.00
* Cn1cccc(-c2n[nH]c3ccc(N[C@H]4CCCc5cc(C#N)ccc54)cc23)c1=O (single isomer, unassigned) | 6.00 to 7.00

====

# target: LRRK2 WT (Homo sapiens)
# Construct: purchased Life Technologies PR8604B
# Sequence (Q5S007 whole entry): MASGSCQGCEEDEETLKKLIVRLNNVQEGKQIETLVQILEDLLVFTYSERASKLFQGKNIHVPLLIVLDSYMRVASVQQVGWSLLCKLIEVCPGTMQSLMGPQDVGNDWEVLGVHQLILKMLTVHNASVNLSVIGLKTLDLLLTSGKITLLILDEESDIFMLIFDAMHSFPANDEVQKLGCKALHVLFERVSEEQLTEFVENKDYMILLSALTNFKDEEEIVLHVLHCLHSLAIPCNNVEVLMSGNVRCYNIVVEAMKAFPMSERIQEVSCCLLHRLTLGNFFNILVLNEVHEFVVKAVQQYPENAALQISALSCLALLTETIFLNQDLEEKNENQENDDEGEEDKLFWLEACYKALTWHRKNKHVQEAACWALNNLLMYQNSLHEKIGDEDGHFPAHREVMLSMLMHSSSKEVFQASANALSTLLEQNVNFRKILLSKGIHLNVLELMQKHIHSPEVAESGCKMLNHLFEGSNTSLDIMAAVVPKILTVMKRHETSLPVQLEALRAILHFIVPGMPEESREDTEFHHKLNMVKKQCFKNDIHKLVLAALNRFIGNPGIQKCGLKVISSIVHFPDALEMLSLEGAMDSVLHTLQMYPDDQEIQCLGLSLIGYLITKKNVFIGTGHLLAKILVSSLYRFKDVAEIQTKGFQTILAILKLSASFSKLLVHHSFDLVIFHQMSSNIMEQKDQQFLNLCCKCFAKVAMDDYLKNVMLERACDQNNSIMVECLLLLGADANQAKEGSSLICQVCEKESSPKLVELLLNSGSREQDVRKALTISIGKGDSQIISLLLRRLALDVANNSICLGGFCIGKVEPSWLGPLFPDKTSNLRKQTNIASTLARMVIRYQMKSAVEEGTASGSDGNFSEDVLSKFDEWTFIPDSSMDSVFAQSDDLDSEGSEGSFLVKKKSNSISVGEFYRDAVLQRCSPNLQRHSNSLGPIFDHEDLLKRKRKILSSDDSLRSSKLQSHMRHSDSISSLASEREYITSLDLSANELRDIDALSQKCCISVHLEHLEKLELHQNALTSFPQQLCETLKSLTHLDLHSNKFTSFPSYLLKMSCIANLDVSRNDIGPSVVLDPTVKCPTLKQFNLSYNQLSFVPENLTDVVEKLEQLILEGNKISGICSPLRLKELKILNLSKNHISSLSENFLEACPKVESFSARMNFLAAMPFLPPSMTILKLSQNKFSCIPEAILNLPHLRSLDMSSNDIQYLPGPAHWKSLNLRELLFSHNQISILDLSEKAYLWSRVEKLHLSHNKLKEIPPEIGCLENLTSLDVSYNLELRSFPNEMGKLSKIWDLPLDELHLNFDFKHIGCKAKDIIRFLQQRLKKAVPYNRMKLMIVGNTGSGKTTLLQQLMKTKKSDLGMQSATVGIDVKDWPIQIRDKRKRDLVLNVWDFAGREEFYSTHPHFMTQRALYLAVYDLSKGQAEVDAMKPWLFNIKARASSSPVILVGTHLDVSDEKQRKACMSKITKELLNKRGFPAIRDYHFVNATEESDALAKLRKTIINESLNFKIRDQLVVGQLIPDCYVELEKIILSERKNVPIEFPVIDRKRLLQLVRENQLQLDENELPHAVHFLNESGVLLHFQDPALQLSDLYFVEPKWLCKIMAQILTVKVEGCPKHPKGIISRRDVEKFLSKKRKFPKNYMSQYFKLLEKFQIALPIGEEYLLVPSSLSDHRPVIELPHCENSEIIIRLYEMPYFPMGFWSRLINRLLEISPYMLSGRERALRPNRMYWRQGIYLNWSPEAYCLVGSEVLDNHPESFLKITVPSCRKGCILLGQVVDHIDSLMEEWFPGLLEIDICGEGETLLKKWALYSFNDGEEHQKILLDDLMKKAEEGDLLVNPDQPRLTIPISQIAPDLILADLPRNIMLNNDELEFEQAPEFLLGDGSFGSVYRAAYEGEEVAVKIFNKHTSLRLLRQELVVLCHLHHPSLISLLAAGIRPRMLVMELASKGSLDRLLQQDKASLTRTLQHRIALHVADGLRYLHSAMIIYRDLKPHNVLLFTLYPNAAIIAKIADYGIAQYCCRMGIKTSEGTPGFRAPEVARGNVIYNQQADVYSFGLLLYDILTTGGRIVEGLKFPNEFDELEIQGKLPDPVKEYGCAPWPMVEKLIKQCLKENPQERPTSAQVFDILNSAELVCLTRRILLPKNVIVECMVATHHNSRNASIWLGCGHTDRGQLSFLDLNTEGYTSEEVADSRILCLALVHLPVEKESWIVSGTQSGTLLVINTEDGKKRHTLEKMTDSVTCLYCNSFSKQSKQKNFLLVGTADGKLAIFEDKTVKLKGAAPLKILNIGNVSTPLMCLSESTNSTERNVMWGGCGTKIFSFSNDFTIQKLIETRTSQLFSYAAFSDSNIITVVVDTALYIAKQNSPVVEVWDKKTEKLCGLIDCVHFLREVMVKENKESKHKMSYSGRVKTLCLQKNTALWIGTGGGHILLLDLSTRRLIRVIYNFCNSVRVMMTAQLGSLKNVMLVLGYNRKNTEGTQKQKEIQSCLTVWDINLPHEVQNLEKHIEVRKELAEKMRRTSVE
# assay_details: LRRK2 Kinase Activity Assay (LanthaScreen TR-FRET), wild type
# Assay type: biochemical
# condition: recombinant wild type LRRK2, 25 μM ATP, 400 nM LRRKtide, 60 min; class symbols
metric: IC50

• Cn1ccc(-c2n[nH]c3ccc(N[C@H]4CCCc5cc(C#N)cnc54)cc23)c1 (single isomer, unassigned) [Example 149, enantiomer 1] = 100 to 1000 nM
• Cc1cc(C#N)cc2c1[C@@H](Nc1ccc3[nH]nc(-c4cnco4)c3c1)CC2 (single isomer, unassigned) [Example 131, enantiomer 1] = < 100 nM
• N#Cc1ccc2c(c1)CCC[C@@H]2Nc1ccc2[nH]nc(-c3cnn4c3CCC4)c2c1 (single isomer, unassigned) = < 100 nM
• COc1c(C#N)cnc2c1CCC[C@@H]2Nc1ccc2[nH]nc(-c3cnco3)c2c1 (single isomer, unassigned) [Example 146, enantiomer 2] = < 100 nM
• N#Cc1ccc2c(c1)CCCC2Nc1ccc2[nH]nc(C(F)(F)F)c2c1 (single isomer, unassigned) [Example 153, enantiomer 1] = 1000 to 10000 nM
• N#Cc1ccc2c(c1)CCC[C@@H]2Nc1ccc2[nH]nc(-c3ccc4c(c3)NC(=O)C4)c2c1 (single isomer, unassigned) = < 100 nM

====

# target: LRRK2 WT (Homo sapiens)
# Construct: purchased Life Technologies PR8604B
# assay_details: LRRK2 Kinase Activity Assay (LanthaScreen TR-FRET), wild type
# Format: biochemical
# condition: recombinant wild type LRRK2, 25 μM ATP, 400 nM LRRKtide, 60 min; class symbols
# Experimental: LRRK2 kinase activity was measured using a LanthaScreen™ Kinase Activity Assay from ThermoFisher Scientific. Recombinant wild type or G2019S-LRRK2 protein (Life Technologies, PR8604B or PV4881, respectively), was incubated with a fluorescein-labeled peptide substrate called LRRKtide that is based upon ezrin/radixin/moesin (ERM) (Life Technologies, PV4901) in the presence of ATP and serially diluted compound. […]
pIC50: −log10 of the molar value.
Listing of recorded pIC50 by entry.
metric: pIC50

* N#Cc1ccc2c(c1F)CC[C@@H]2Oc1ccc2[nH]nc(-c3cnco3)c2c1 (single isomer, unassigned) [Example 24, enantiomer 2] | > 7.00
* Cc1c(C#N)c(Cl)nc2c1CCC[C@@H]2Nc1ccc2[nH]nc(C3CC3)c2c1 (single isomer, unassigned) [183, enantiomer 1] | 5.00 to 6.00
* N#Cc1ccc2c(c1F)CC[C@@H]2Nc1ccc2[nH]nc(-c3cnco3)c2c1 (single isomer, unassigned) [Example 26, enantiomer 1] | > 7.00
